// reported IC50, Murine IL-21R-BaF3 Neutralization Assay per item
# target_or_system: murine IL-21R expressed on cells (murine, UniProt Q9JHX3 20-529)
# Sequence (Q9JHX3 20-529 limits assumed): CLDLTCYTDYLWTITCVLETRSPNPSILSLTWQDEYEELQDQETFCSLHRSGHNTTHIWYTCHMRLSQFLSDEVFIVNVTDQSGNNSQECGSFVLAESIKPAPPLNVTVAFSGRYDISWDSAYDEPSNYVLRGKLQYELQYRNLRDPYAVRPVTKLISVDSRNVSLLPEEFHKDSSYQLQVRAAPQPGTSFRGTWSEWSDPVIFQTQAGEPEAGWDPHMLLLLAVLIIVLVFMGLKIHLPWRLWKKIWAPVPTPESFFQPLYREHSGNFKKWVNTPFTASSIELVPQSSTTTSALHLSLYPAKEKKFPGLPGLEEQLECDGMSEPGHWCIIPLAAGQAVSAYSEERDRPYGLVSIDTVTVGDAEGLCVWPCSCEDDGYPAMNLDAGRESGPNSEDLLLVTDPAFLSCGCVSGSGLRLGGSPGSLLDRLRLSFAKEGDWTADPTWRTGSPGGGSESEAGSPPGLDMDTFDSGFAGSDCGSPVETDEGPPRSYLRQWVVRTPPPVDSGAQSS
# assay_protocol: cell-based or functional assay
// return numeric value only (unit: nM, not printed)

Please review the entries below; each comes with its answer.
scFv L13 (scFv) scFv: QVQLQESGPGLVKTSETLSLTCAVSGYSISSGYYWGWIRQPPGKGLEWIGSISHTGNTYYNPPLKSRVTISVDTSKNQFSLKLSSVTAADTAVYYCARGGGISRPEYWGKGTLVTVSSGGGGSGGGGSGGGGSALSSELTQDPPVSVALGQTVTLTCQGDSLRTYYASWYQQKSGQAPILLLYGKHKRPSGIPDRFSGSTSGDTASLTITGAQAEDEADYYCVTRNRYGNPHVLFGGGTQLTVL = 1.25
scFv L6 (scFv) scFv: QVQLQESGPGLVKTSETLSLTCAVSGYSISSGYYWGWIRQPPGKGLEWIGSISHTGNTYYNPPLKSRVTISVDTSKNQFSLKLSSVTAADTAVYYCARGGGISRPEYWGKGTLVTVSSGGGGSGGGGSGGGGSALSSELTQDPPVSVALGQTVTLTCQGDSLRTYYASWYQQKSGQAPILLLYGKHKRPSGIPDRFSGSTSGDTASLTITGAQAEDEADYYCMSRSIWGNPHVLFGGGTQLTVL = 0.29
scFv L8 (scFv) scFv: QVQLQESGPGLVKTSETLSLTCAVSGYSISSGYYWGWIRQPPGKGLEWIGSISHTGNTYYNPPLKSRVTISVDTSKNQFSLKLSSVTAADTAVYYCARGGGISRPEYWGKGTLVTVSSGGGGSGGGGSGGGGSALSSELTQDPPVSVALGQTVTLTCQGDSLRTYYASWYQQKSGQAPILLLYGKHKRPSGIPDRFSGSTSGDTASLTITGAQAEDEADYYCTTRSTQGNPHVLFGGGTQLTVL = 715
scFv L5 (scFv) scFv: QVQLQESGPGLVKTSETLSLTCAVSGYSISSGYYWGWIRQPPGKGLEWIGSISHTGNTYYNPPLKSRVTISVDTSKNQFSLKLSSVTAADTAVYYCARGGGISRPEYWGKGTLVTVSSGGGGSGGGGSGGGGSALSSELTQDPPVSVALGQTVTLTCQGDSLRTYYASWYQQKSGQAPILLLYGKHKRPSGIPDRFSGSTSGDTASLTITGAQAEDEADYYCASRSSKGNPHVLFGGGTQLTVL = 38.5

IN: Record request: IC50, Murine IL-21R-BaF3 Neutralization Assay value, item scFv L21 (scFv) scFv: QVQLQESGPGLVKTSETLSLTCAVSGYSISSGYYWGWIRQPPGKGLEWIGSISHTGNTYYNPPLKSRVTISVDTSKNQFSLKLSSVTAADTAVYYCARGGGISRPEYWGKGTLVTVSSGGGGSGGGGSGGGGSALSSELTQDPPVSVALGQTVTLTCQGDSLRTYYASWYQQKSGQAPILLLYGKHKRPSGIPDRFSGSTSGDTASLTITGAQAEDEADYYCATRAVRGNPHVLFGGGTQLTVL
OUT: 162

IN: Record request: IC50, Murine IL-21R-BaF3 Neutralization Assay value, item scFv L19 (scFv) scFv: QVQLQESGPGLVKTSETLSLTCAVSGYSISSGYYWGWIRQPPGKGLEWIGSISHTGNTYYNPPLKSRVTISVDTSKNQFSLKLSSVTAADTAVYYCARGGGISRPEYWGKGTLVTVSSGGGGSGGGGSGGGGSALSSELTQDPPVSVALGQTVTLTCQGDSLRTYYASWYQQKSGQAPILLLYGKHKRPSGIPDRFSGSTSGDTASLTITGAQAEDEADYYCVARAVRGNPHVLFGGGTQLTVL
OUT: 13.6

IN: Record request: IC50, Murine IL-21R-BaF3 Neutralization Assay value, item scFv L3 (scFv) scFv: QVQLQESGPGLVKTSETLSLTCAVSGYSISSGYYWGWIRQPPGKGLEWIGSISHTGNTYYNPPLKSRVTISVDTSKNQFSLKLSSVTAADTAVYYCARGGGISRPEYWGKGTLVTVSSGGGGSGGGGSGGGGSALSSELTQDPPVSVALGQTVTLTCQGDSLRTYYASWYQQKSGQAPILLLYGKHKRPSGIPDRFSGSTSGDTASLTITGAQAEDEADYYCVSRAVVGNPHVLFGGGTQLTVL
OUT: 13.8

IN: Record request: IC50, Murine IL-21R-BaF3 Neutralization Assay value, item scFv L16 (scFv) scFv: QVQLQESGPGLVKTSETLSLTCAVSGYSISSGYYWGWIRQPPGKGLEWIGSISHTGNTYYNPPLKSRVTISVDTSKNQFSLKLSSVTAADTAVYYCARGGGISRPEYWGKGTLVTVSSGGGGSGGGGSGGGGSALSSELTQDPPVSVALGQTVTLTCQGDSLRTYYASWYQQKSGQAPILLLYGKHKRPSGIPDRFSGSTSGDTASLTITGAQAEDEADYYCVTRSAKGNPHVLFGGGTQLTVL
OUT: 4.71

IN: Record request: IC50, Murine IL-21R-BaF3 Neutralization Assay value, item scFv L14 (scFv) scFv: QVQLQESGPGLVKTSETLSLTCAVSGYSISSGYYWGWIRQPPGKGLEWIGSISHTGNTYYNPPLKSRVTISVDTSKNQFSLKLSSVTAADTAVYYCARGGGISRPEYWGKGTLVTVSSGGGGSGGGGSGGGGSALSSELTQDPPVSVALGQTVTLTCQGDSLRTYYASWYQQKSGQAPILLLYGKHKRPSGIPDRFSGSTSGDTASLTITGAQAEDEADYYCMARSRKGNPHVLFGGGTQLTVL
OUT: 6.49

IN: Record request: IC50, Murine IL-21R-BaF3 Neutralization Assay value, item scFv L17 (scFv) scFv: QVQLQESGPGLVKTSETLSLTCAVSGYSISSGYYWGWIRQPPGKGLEWIGSISHTGNTYYNPPLKSRVTISVDTSKNQFSLKLSSVTAADTAVYYCARGGGISRPEYWGKGTLVTVSSGGGGSGGGGSGGGGSALSSELTQDPPVSVALGQTVTLTCQGDSLRTYYASWYQQKSGQAPILLLYGKHKRPSGIPDRFSGSTSGDTASLTITGAQAEDEADYYCSTRSRKGNPHVLFGGGTQLTVL
OUT: 2.66
